tested on: Erysiphe graminis; test: Effects on Barley powdery mildew (preventive spray test); format: in vivo; conditions: conc. of active ingredient 20 ppm, lesions counted seven days after inoculation
Reported Property: Preventive rate (%)
One number for each entry, in %.

{"Compound": "C#CCON=C1COc2c1ccc(OCc1ccccc1/C(=N\\OC)C(=O)OC)c2C [a-70]", "Reported Property": "Preventive rate (%)", "Unit Abbreviation": "%", "Val": 100}
{"Compound": "COC=C(C(=O)OC)c1ccccc1COc1ccc2c(c1C)OC(C)CC2=NOC (racemic) [d-8]", "Reported Property": "Preventive rate (%)", "Unit Abbreviation": "%", "Val": 100}
{"Compound": "CO/N=C(/C(=O)OC)c1ccccc1COc1ccc2c(c1C)OCC2=NOC/C=C/Cl [a-61]", "Reported Property": "Preventive rate (%)", "Unit Abbreviation": "%", "Val": 100}
{"Compound": "CO/C=C(/C(=O)OC)c1ccccc1COc1ccc2c(c1C)OC(C)C2=NOC (single isomer, unassigned) [b-4]", "Reported Property": "Preventive rate (%)", "Unit Abbreviation": "%", "Val": 100}
{"Compound": "C#CCON=C1COc2c1ccc(OCc1ccccc1/C(=N\\OC)C(=O)NC)c2C [a-71]", "Reported Property": "Preventive rate (%)", "Unit Abbreviation": "%", "Val": 100}

Respectfully, I request Preventive rate (%) for each entry included below.
1. CNC(=O)/C(=N/OC)c1ccccc1COc1ccc2c(c1C)OCC2=NOC [a-16]
2. CO/C=C(/C(=O)OC)c1ccccc1COc1ccc2c(c1C)OC(C)C2=NOC (single isomer, unassigned) [b-5]
3. CNC(=O)/C(=N/OC)c1ccccc1COc1cc2c(cc1C)C(=NOC)CO2 [a-27]
4. CNC(=O)C(=NOC)c1ccccc1COc1cc2c(cc1C)C(=NOC)CC2 [e-27]
5. CNC(=O)C(=NOC)c1ccccc1COc1ccc2c(c1)CCC2=NOC [e-5]

Resp:
100
98
100
99
95

Respectfully, I request Preventive rate (%) for each entry included below.
1. CNC(=O)C(=NOC)c1ccccc1COc1ccc2c(c1C)OCCC2=NOCc1cccc2ccccc12 [c-89]
2. C=C(Cl)CON=C1CCOc2c1ccc(OCc1ccccc1C(=NOC)C(=O)NC)c2C [c-64]
3. COC=C(C(=O)OC)c1ccccc1COc1ccc2c(c1C)OCC2=NOC [a-13]
4. CNC(=O)C(=NOC)c1ccccc1COc1ccc2c(c1C)OC(C)CC2=NOC (racemic) [d-11]
5. CNC(=O)C(=NOC)c1ccccc1COc1cc2c(cc1C)C(=NOC)CCO2 [c-27]
6. COC=C(C(=O)OC)c1ccccc1COc1ccc2c(c1)OCC2=NOC [a-2]
7. CNC(=O)C(=NOC)c1ccccc1COc1ccc2c(c1C)OCCC2=NOCc1ccc(Cl)c(Cl)c1 [c-79]
8. CNC(=O)C(=NOC)c1ccccc1COc1cc(C)c2c(c1C)CCC2=NOC [e-23]

Resp:
92
96
100
99
100
79
100
100

---

system: Puccinia recondite; assay: Penetration and translocation in wheat leaves (covered leaf tip, brown rust); format: in vivo; settings: conc. of active ingredient 200 ppm
Reported Property: Number of lesions formed within the mark to the tip
One number for each entry.

{"Compound": "CNC(=O)/C(=N/OC)c1ccccc1COc1cc2c(cc1C)C(=NOC)CO2", "Val": 0}
{"Compound": "CNC(=O)/C(=N/OC)c1ccccc1COc1ccc2c(c1C)OCC2=NOC", "Val": 0}
{"Compound": "CNC(=O)C(=NOC)c1ccccc1COc1ccc2c(c1)CCC2=NOC", "Val": 0}
{"Compound": "CNC(=O)/C(=N/OC)c1ccccc1COc1ccc2c(c1)CCC2 [comparative compound (1), reference compound]", "Val": 48}
{"Compound": "CNC(=O)C(=NOC)c1ccccc1COc1ccc2c(c1)OCCC2=NOC", "Val": 0}

Input `CNC(=O)/C(=N/OC)c1ccccc1COc1ccc2c(c1)OCC2=NOC` . Output Number of lesions formed within the mark to the tip: 0

---

test system: Chochliobolus miyabeanus; experiment: Effect on Rice brown spot (preventive spray test); assay type: in vivo; settings: conc. of active ingredient 4 ppm, 7 days after inoculation
For each record, write down the corresponding Preventive rate (%).

{"Smiles Code": "COC=C(C(=O)OC)c1ccccc1COc1ccc2c(c1)CCC2=NO", "Preventive rate (%)": "87%"}
{"Smiles Code": "C#CCON=C1CCc2c1ccc(OCc1ccccc1C(=NOC)C(=O)NC)c2C", "Preventive rate (%)": "84%"}

Now consider the entry below.
Input `CO/N=C(/C(=O)OC)c1ccccc1COc1ccc2c(c1C)OCC2=NOC/C=C/Cl` . Output Preventive rate (%): 49%

---

system: Phytophthora infestans; type: in vivo; settings: Tomato late blight; conc. of active ingredient 20 ppm; 5 days after inoculation
Reported Property: Preventive rate (%)
Numbers only, in %.

{"Molecule": "CNC(=O)C(=NOC)c1ccccc1COc1cc2c(cc1C)C(=NOC)CC2", "Preventive rate (%)": 100}
{"Molecule": "CNC(=O)/C(=N/OC)c1ccccc1COc1ccc2c(c1)OCC2=NOC", "Preventive rate (%)": 97}
{"Molecule": "COC=C(C(=O)OC)c1ccccc1COc1ccc2c(c1C)C(C)CC2=NOC (racemic)", "Preventive rate (%)": 100}
{"Molecule": "CON=C1CCc2cc(OCc3ccccc3C(=NOC)C(=O)OC)c(C)cc21", "Preventive rate (%)": 97}
{"Molecule": "CNC(=O)C(=NOC)c1ccccc1COc1ccc2c(c1C)CCC2=NOC", "Preventive rate (%)": 100}

Now consider the entry below.
The molecule `CNC(=O)C(=NOC)c1ccccc1COc1ccc2c(c1)CCC2=NOC` , tested on Phytophthora infestans, showed Preventive rate (%) of 95

---

tested on: Phytophthora infestans; type: in vivo; conditions: Tomato late blight; conc. of active ingredient 20 ppm; 5 days after inoculation
For each record, write down the corresponding Preventive rate (%).
Answers are plain numbers, in %.

In the examples that follow, each entry is paired with its recorded Preventive rate (%).
{"Compound": "CO/C=C(/C(=O)OC)c1ccccc1COc1ccc2c(c1)OCCC2=NOC", "Reported Property": "Preventive rate (%)", "Val": 98}
{"Compound": "C/C=C/CON=C1COc2c1ccc(OCc1ccccc1/C(=N\\OC)C(=O)NC)c2C", "Reported Property": "Preventive rate (%)", "Val": 97}
{"Compound": "CNC(=O)/C(=N/OC)c1ccccc1COc1ccc2c(c1)CCC2 [comparative compound (1), reference compound]", "Reported Property": "Preventive rate (%)", "Val": 63}
{"Compound": "CON=C(C(=O)OC)c1ccccc1COc1ccc2c(c1C)OCCC2=NOC", "Reported Property": "Preventive rate (%)", "Val": 94}
{"Compound": "COC=C(C(=O)OC)c1ccccc1COc1ccc2c(c1C)OCCC2=NOC", "Reported Property": "Preventive rate (%)", "Val": 100}
{"Compound": "CNC(=O)/C(=N/OC)c1ccccc1COc1ccc2c(c1C)OCC2=NOCC#N", "Reported Property": "Preventive rate (%)", "Val": 97}

Respectfully, I request Preventive rate (%) for each entry included below.
1. CCc1cc2c(cc1OCc1ccccc1/C(=N\OC)C(=O)NC)OCC2=NOC
2. CON=C1COc2c1ccc(OCc1ccccc1/C(=N\OC)C(=O)OC)c2C

Resp:
1. 98
2. 81

Respectfully, I request Preventive rate (%) for each entry included below.
1. CON=C(C(=O)OC)c1ccccc1COc1ccc2c(c1)OCCC2=NOC
2. CON=C(C(=O)OC)c1ccccc1COc1cc2c(cc1C)C(=NOC)C(C)C2 (single isomer, unassigned) [f-10]
3. CCCON=C1COc2c1ccc(OCc1ccccc1/C(=N\OC)C(=O)NC)c2C
4. CNC(=O)/C(=N/OC)c1ccccc1COc1ccc2c(c1C)OC(C)C2=NOC (centres unmarked)
5. CCON=C1COc2c1ccc(OCc1ccccc1/C(=N\OC)C(=O)NC)c2C
6. CO/N=C(/C(=O)OC)c1ccccc1COc1ccc2c(c1C)OCC2=NOC/C=C/Cl

Resp:
[97, 97, 98, 95, 91, 89]

Respectfully, I request Preventive rate (%) for each entry included below.
1. C=CCON=C1COc2c1ccc(OCc1ccccc1/C(=N\OC)C(=O)NC)c2C
2. CNC(=O)/C(=N/OC)c1ccccc1COc1ccc2c(c1C)OCC2=NOC/C=C/Cl
3. C#CCON=C1COc2c1ccc(OCc1ccccc1/C(=N\OC)C(=O)OC)c2C
4. CO/N=C(\C(=O)OC)c1ccccc1COc1ccc2c(c1)CCCC2 [comparative compound (2), reference compound]
5. CNC(=O)C(=NOC)c1ccccc1COc1ccc2c(c1C)OCCC2=NOC
6. C=C(Cl)CON=C1COc2c1ccc(OCc1ccccc1/C(=N\OC)C(=O)NC)c2C

Resp:
[97, 97, 95, 38, 100, 84]

Respectfully, I request Preventive rate (%) for each entry included below.
1. CNC(=O)C(=NOC)c1ccccc1COc1cc2c(cc1C)C(=NOC)C(C)C2 (single isomer, unassigned)
2. CNC(=O)C(=NOC)c1ccccc1COc1cc(C)c2c(c1C)CCC2=NOC
3. CON=C1c2ccc(OCc3ccccc3/C(=N\OC)C(=O)OC)c(C)c2OC1C (centres unmarked)
4. CNC(=O)C(=NOC)c1ccccc1COc1ccc2c(c1)OCCC2=NOC
5. COC=C(C(=O)OC)c1ccccc1COc1ccc2c(c1)OCC2=NOC
6. C#CCON=C1CCc2c1ccc(OCc1ccccc1C(=NOC)C(=O)NC)c2C

Resp:
[100, 100, 92, 88, 97, 98]
